target: HLA-C0801 (Homo sapiens, UniProt P10321, A176T/A330V/A97T/C350S/D114A/D138N/D33Y/E201K/E299G/L171W/L218V/M285V/M309V/M331V/P208H/Q277E/Q291P/R59Q/S123Y/S140F/S297R/S48A/T329A/T363A/V319A/V328M); test: Competitive peptide binding assay, CIR-C0801; details: HMy2.CIR-C0801 cells, reference Cy5-[…], class from inhibition at 5 and 15 μM, flow cytometry MFI; read-out: Binding affinity with HLA-C0801
Peptide text beside a SMILES is read from it.
# key: entry, value: IC50

Compound: CC[C@H](C)[C@H](NC(=O)[C@H](Cc1ccccc1)NC(=O)[C@@H](N)Cc1ccc(O)cc1)C(=O)N[C@@H](C)C(=O)N[C@@H](CO)C(=O)N[C@@H](Cc1ccccc1)C(=O)N[C@@H](CCCNC(=N)N)C(=O)N[C@@H](CC(C)C)C(=O)N[C@@H](Cc1ccccc1)C(=O)O [Epitope M107] (H-YFIASFRLF-OH; N-terminus and C-terminus assumed)
IC50: > 15 µM
//
Compound: CSCC[C@H](NC(=O)[C@H](CO)NC(=O)[C@H](CCCNC(=N)N)NC(=O)[C@@H](NC(=O)[C@H](CCCNC(=N)N)NC(=O)[C@H](C)NC(=O)[C@@H](N)Cc1ccccc1)[C@@H](C)O)C(=O)N[C@@H](Cc1c[nH]c2ccccc12)C(=O)N[C@@H](CO)C(=O)N[C@@H](Cc1ccccc1)C(=O)O [Epitope M71] (H-FARTRSMWSF-OH; N-terminus and C-terminus assumed)
IC50: > 15 µM
//
Compound: CC[C@H](C)[C@H](NC(=O)[C@H](C)NC(=O)CNC(=O)[C@@H](NC(=O)[C@H](Cc1ccc(O)cc1)NC(=O)[C@@H](NC(=O)[C@@H](N)CC(C)C)[C@@H](C)O)[C@@H](C)O)C(=O)N[C@@H](CCCCN)C(=O)N[C@@H](CC(C)C)C(=O)O [Epitope M15] (H-LTYTGAIKL-OH; N-terminus and C-terminus assumed)
IC50: < 5 µM

* * *

molecular target: HLA-B1302 (Homo sapiens, UniProt P01889, A65T/A93T/A95T/D138N/D201E/D98Y/E176V/E204Q/E69M/E70A/G107R/K202T/L105A/L119W/N104T/N87E/Q94N/R106L/R155S/R169L/R180L/S101N/S121T/S35A/S48T/V127L/V36M/Y140L/Y91S); test: Competitive peptide binding assay, CIR-B1302; settings: HMy2.CIR-B1302 cells, reference Cy5-MMWYWGPSL, class from inhibition at 5 and 15 μM, flow cytometry MFI; read-out: Binding affinity with HLA-B1302
Peptide text beside a SMILES is read from it.
Endpoint: IC50

Compound: CC[C@H](C)[C@H](NC(=O)[C@H](CCCNC(=N)N)NC(=O)[C@H](CC(C)C)NC(=O)[C@H](CCSC)NC(=O)[C@H](CC(N)=O)NC(=O)[C@@H]1CCCN1C(=O)[C@H](CCSC)NC(=O)[C@H](C)NC(=O)[C@@H](N)CCCNC(=N)N)C(=O)O [Epitope Y77] (H-RAMPNMLRI-OH; N-terminus and C-terminus assumed)
Endpoint: IC50
Reading: < 5 µM
//
Compound: CC(C)C[C@H](NC(=O)[C@H](CC(C)C)NC(=O)[C@H](CC(C)C)NC(=O)[C@H](CC(N)=O)NC(=O)[C@H](CO)NC(=O)[C@H](CS)NC(=O)[C@H](CCC(=O)O)NC(=O)[C@@H](N)[C@@H](C)O)C(=O)N[C@@H](CCC(N)=O)C(=O)N[C@@H](Cc1ccc(O)cc1)C(=O)O [Epitope Y231] (H-TECSNLLLQY-OH; N-terminus and C-terminus assumed)
Endpoint: IC50
Reading: > 15 µM
//
Compound: CC(C)[C@H](NC(=O)[C@@H](N)Cc1ccccc1)C(=O)N[C@@H](CO)C(=O)N[C@@H](CC(N)=O)C(=O)NCC(=O)N[C@H](C(=O)N[C@@H](Cc1c[nH]cn1)C(=O)N[C@@H](Cc1c[nH]c2ccccc12)C(=O)N[C@@H](Cc1ccccc1)C(=O)O)[C@@H](C)O [Epitope Y250] (H-FVSNGTHWF-OH; N-terminus and C-terminus assumed)
Endpoint: IC50
Reading: > 15 µM
//
Compound: CC[C@H](C)[C@H](NC(=O)[C@H](CO)NC(=O)[C@H](CCC(N)=O)NC(=O)[C@H](CO)NC(=O)[C@H](C)NC(=O)[C@@H](N)C(C)C)C(=O)N[C@H](C(=O)N[C@@H](C)C(=O)N[C@@H](Cc1ccc(O)cc1)C(=O)O)[C@@H](C)CC [Epitope Y151] (H-VASQSIIAY-OH; N-terminus and C-terminus assumed)
Endpoint: IC50
Reading: < 5 µM
//
Compound: CC[C@H](C)[C@H](NC(=O)[C@@H](NC(=O)[C@H](CC(C)C)NC(=O)[C@H](CCC(=O)O)NC(=O)[C@H](CO)NC(=O)[C@H](CCC(=O)O)NC(=O)[C@@H](N)CC(C)C)C(C)C)C(=O)NCC(=O)N[C@@H](C)C(=O)N[C@H](C(=O)O)C(C)C [Epitope Y211] (H-LESELVIGAV-OH; N-terminus and C-terminus assumed)
Endpoint: IC50
Reading: > 15 µM
//
Compound: CC(C)C[C@H](N)C(=O)N1CCC[C@H]1C(=O)N[C@@H](CC(N)=O)C(=O)N[C@@H](CC(N)=O)C(=O)N[C@H](C(=O)N[C@@H](C)C(=O)N[C@@H](CO)C(=O)N[C@@H](Cc1c[nH]c2ccccc12)C(=O)N[C@@H](Cc1ccccc1)C(=O)O)[C@@H](C)O [Epitope Y17] (H-LPNNTASWF-OH; N-terminus and C-terminus assumed)
Endpoint: IC50
Reading: > 15 µM
//
Compound: CC(C)[C@H](NC(=O)[C@H](CC(N)=O)NC(=O)[C@H](Cc1ccc(O)cc1)NC(=O)[C@H](C)NC(=O)[C@@H](N)CCCCN)C(=O)N[C@H](C(=O)N[C@@H](CCC(N)=O)C(=O)N[C@@H](C)C(=O)N[C@@H](Cc1ccccc1)C(=O)O)[C@@H](C)O [Epitope Y62] (H-KAYNVTQAF-OH)
Endpoint: IC50
Reading: > 15 µM
//
Compound: CC[C@H](C)[C@H](NC(=O)CNC(=O)[C@H](CC(=O)O)NC(=O)[C@H](CCCCN)NC(=O)[C@H](CC(N)=O)NC(=O)[C@H](C)NC(=O)CN)C(=O)N[C@H](C(=O)N[C@@H](Cc1c[nH]c2ccccc12)C(=O)O)[C@@H](C)CC [Epitope Y301] (H-GANKDGIIW-OH; N-terminus and C-terminus assumed)
Endpoint: IC50
Reading: > 15 µM
//
Compound: CC(C)C[C@H](NC(=O)[C@H](CC(=O)O)NC(=O)[C@H](CCC(N)=O)NC(=O)[C@@H](NC(=O)[C@@H](N)CO)[C@@H](C)O)C(=O)N[C@@H](Cc1ccccc1)C(=O)N[C@@H](CC(C)C)C(=O)N1CCC[C@H]1C(=O)N[C@@H](Cc1ccccc1)C(=O)O [Epitope Y249] (H-STQDLFLPF-OH; N-terminus and C-terminus assumed)
Endpoint: IC50
Reading: > 15 µM
//
Compound: CSCC[C@H](NC(=O)[C@H](C)NC(=O)[C@H](CCC(=O)O)NC(=O)[C@H](Cc1ccc(O)cc1)NC(=O)[C@H](Cc1ccccc1)NC(=O)[C@H](CCC(=O)O)NC(=O)[C@@H]1CCCN1C(=O)[C@H](CCC(=O)O)NC(=O)[C@@H](N)Cc1c[nH]c2ccccc12)C(=O)O [Epitope Y200] (H-WEPEFYEAM-OH; N-terminus and C-terminus assumed)
Endpoint: IC50
Reading: > 15 µM
//
Compound: CC[C@H](C)[C@H](NC(=O)[C@H](CC(N)=O)NC(=O)[C@H](CCCCN)NC(=O)[C@H](Cc1ccccc1)NC(=O)[C@@H](NC(=O)[C@@H](N)Cc1ccccc1)C(C)C)C(=O)N[C@@H](CC(=O)O)C(=O)NCC(=O)N[C@@H](Cc1ccc(O)cc1)C(=O)O [Epitope Y172] (H-FVFKNIDGY-OH; N-terminus and C-terminus assumed)
Endpoint: IC50
Reading: > 15 µM
//
Compound: CC(C)C[C@H](NC(=O)[C@H](CC(C)C)NC(=O)[C@@H](NC(=O)[C@@H](NC(=O)[C@@H](NC(=O)[C@H](CCC(N)=O)NC(=O)[C@H](CCC(N)=O)NC(=O)[C@H](CCCCN)NC(=O)[C@@H](N)CCCCN)[C@@H](C)O)C(C)C)[C@@H](C)O)C(=O)O [Epitope Y196] (H-KKQQTVTLL-OH; N-terminus and C-terminus assumed)
Endpoint: IC50
Reading: 5 to 15 µM

* * *

Recorded measurements of pIC50, one per entry
biological target: HLA-B1501 (Homo sapiens, UniProt P01889, A329T/A93T/A95T/C349S/D201E/D98Y/E187L/E204Q/E69M/E70A/K202T/N87E/Q94N/R155S/R180W/S121R/S35A/S48A/V306I/V36M/Y140S/Y91S); assay: Competitive peptide binding assay, CIR-B1501; conditions: HMy2.CIR-B1501 cells, reference Cy5-[…], class from inhibition at 5 and 15 μM, flow cytometry MFI; read-out: Binding affinity with HLA-B1501
pIC50: −log10 of the molar value. Peptide text beside a SMILES is read from it.
Endpoint: pIC50

Compound: CC[C@H](C)[C@H](NC(=O)[C@@H]1CCCN1C(=O)[C@@H]1CCCN1C(=O)[C@@H](NC(=O)[C@H](CCCCN)NC(=O)[C@H](Cc1ccc(O)cc1)NC(=O)[C@@H](NC(=O)[C@H](CCC(N)=O)NC(=O)[C@@H](N)CCCCN)[C@@H](C)CC)[C@@H](C)O)C(=O)O [Epitope Y82] (H-KQIYKTPPI-OH; N-terminus and C-terminus assumed)
Reading: < 4.82
--
Compound: CC(C)C[C@H](NC(=O)[C@H](CC(N)=O)NC(=O)[C@H](CCCCN)NC(=O)[C@@H](NC(=O)[C@H](CCCNC(=N)N)NC(=O)[C@H](CO)NC(=O)[C@H](Cc1ccc(O)cc1)NC(=O)[C@@H](NC(=O)[C@@H](N)Cc1ccc(O)cc1)C(C)C)C(C)C)C(=O)O [Epitope Y3] (H-YVYSRVKNL-OH; N-terminus and C-terminus assumed)
Reading: 4.82 to 5.30
--
Compound: C[C@H](NC(=O)CNC(=O)[C@H](C)NC(=O)[C@@H](NC(=O)[C@@H](N)Cc1c[nH]c2ccccc12)[C@@H](C)O)C(=O)N[C@@H](C)C(=O)N[C@@H](C)C(=O)N[C@@H](Cc1ccc(O)cc1)C(=O)N[C@@H](Cc1ccc(O)cc1)C(=O)O [Epitope Y174] (H-WTAGAAAYY-OH; N-terminus and C-terminus assumed)
Reading: 4.82 to 5.30
